- measured_on: kinase panel containing either 359 or 386 distinct kinases
- assay_method_text: Competition binding assay, selectivity score (S10) against a panel of kinases
- test_context: compounds at 10 μM; fraction of kinases with percent of control less than 10
readout_label: Kinase Specificity (S10)

CC(C)(C)c1cc(NC(=O)Nc2ccc(NC(=O)c3cc(OC4CCNCC4)ccn3)cc2)no1 ... B (0.03 < B ≦ 0.05)
CC(C)(C)c1cc(NC(=O)Nc2ccc(NC(=O)c3cccc(CN4CCOCC4)n3)cc2)no1 ... B (0.03 < B ≦ 0.05)
CN1C(C)(C)CC(Oc2ccc(C(=O)Nc3ccc(NC(=O)Nc4cc(C(C)(C)C(F)(F)F)on4)cc3)nc2)CC1(C)C ... B (0.03 < B ≦ 0.05)
CC(C)(C)c1cc(NC(=O)Nc2ccc(NC(=O)c3ccc(OC4CCN(C5COC5)C4)cn3)cc2)no1 (centres unmarked) ... B (0.03 < B ≦ 0.05)
CN1C(COc2ccc(C(=O)Nc3ccc(NC(=O)Nc4cc(C(C)(C)C)on4)cc3)nc2)CCC1(C)C (centres unmarked) ... B (0.03 < B ≦ 0.05)
CC(C)(C)c1cc(NC(=O)Nc2ccc(NC(=O)c3ccc(CN4CCOCC4)cn3)cc2)no1 ... A (A ≦ 0.03)
COc1cc(NC(=O)c2ccc(OC3CC(C)(C)N(C)C(C)(C)C3)cn2)ccc1NC(=O)Nc1cc(C(C)(C)C)on1 ... A (A ≦ 0.03)

----------
- measured_on: kinase panel containing either 359 or 386 distinct kinases
- assay_method_text: Competition binding assay, selectivity score (S10) against a panel of kinases
- test_context: compounds at 10 μM; fraction of kinases with percent of control less than 10
- Experimental: Competition binding assays used herein were developed, validated and performed as described in Fabian et al., Nature Biotechnology 2005, 23, 329-336. […] Kds were determined using an eleven point threefold serial dilutions. […] The kinase concentration in the eluates was measured by quantitative PCR. A selectivity score (S10) is a quantitative measure of selectivity of a compound against a panel of kinases. […] Percent of control (POC) is calculated by subtracting the signal of the control compound […]
readout_label: Kinase Specificity (S10)

CCN(CC)Cc1cccc(C(=O)Nc2ccc(NC(=O)Nc3cc(C(C)(C)C)on3)cc2)n1 ... A (A ≦ 0.03)
CC(C)(C)c1cc(NC(=O)N[C@H]2CC[C@H](NC(=O)c3ccc(OC4CCNCC4)cn3)CC2)no1 ... A (A ≦ 0.03)
CCN1CCC(Oc2ccc(C(=O)Nc3ccc(NC(=O)Nc4cc(C(C)(C)C)no4)cc3)nc2)CC1 ... B (0.03 < B ≦ 0.05)
CN1CCN(c2ccc(C(=O)Nc3ccc(NC(=O)Nc4cc(C(C)(C)C)on4)cc3)nc2)CC1 ... C (C > 0.05)
CN(C)C(=O)CN1CCC(Oc2ccc(C(=O)Nc3ccc(NC(=O)Nc4cc(C(C)(C)C)on4)cc3)nc2)C1 (centres unmarked) ... B (0.03 < B ≦ 0.05)
CCN1CCC(Oc2ccnc(C(=O)Nc3ccc(NC(=O)Nc4cc(C(C)(C)C)on4)cc3)c2)CC1 ... B (0.03 < B ≦ 0.05)
CCN1CCC(Oc2ccc(C(=O)Nc3ccc(NC(=O)Nc4cc(C(C)(C)C(F)(F)F)on4)cc3)nc2)CC1 ... C (C > 0.05)
CC(C)(C)c1cc(NC(=O)Nc2ccc(NC(=O)c3ccc(OC4CN5CCC4CC5)cn3)cc2)no1 (centres unmarked) ... C (C > 0.05)
CC(C)N1CCC(Oc2ccc(C(=O)Nc3ccc(NC(=O)Nc4cc(C(C)(C)C(F)(F)F)on4)cc3)nc2)CC1 ... C (C > 0.05)
CC(C)N1CC[C@H](Oc2ccc(C(=O)Nc3ccc(NC(=O)Nc4cc(C(C)(C)C)on4)cc3)nc2)C1 ... C (C > 0.05)
CC1(C)CC(Oc2ccc(C(=O)Nc3ccc(NC(=O)Nc4cc(C(C)(C)C)on4)cc3)nc2)CC(C)(C)N1 ... C (C > 0.05)
CC(C)N1CCC(Oc2ccc(C(=O)Nc3ccc(NC(=O)Nc4cc(C(C)(C)C)no4)cc3)nc2)CC1 ... B (0.03 < B ≦ 0.05)
CN1C(C)(C)CC(Oc2ccc(C(=O)Nc3cccc(CNC(=O)Nc4cc(C(C)(C)C)on4)c3)nc2)CC1(C)C ... C (C > 0.05)
CCN1CC[C@@H](COc2ccc(C(=O)Nc3ccc(NC(=O)Nc4cc(C(C)(C)C)on4)cc3)nc2)C1 ... C (C > 0.05)
CC(C)N1CC[C@@H](COc2ccc(C(=O)Nc3ccc(NC(=O)Nc4cc(C(C)(C)C)on4)cc3)nc2)C1 ... C (C > 0.05)
CC(C)N1CCC(Oc2ccc(C(=O)Nc3ccc(N(C)C(=O)Nc4cc(C(C)(C)C)on4)cc3)nc2)C1 (centres unmarked) ... C (C > 0.05)
CN1C2CCC1CC(Oc1ccc(C(=O)Nc3ccc(NC(=O)Nc4cc(C(C)(C)C)on4)cc3)nc1)C2 (centres unmarked) ... C (C > 0.05)

----------
- measured_on: CSF1R (human) (Homo sapiens, UniProt P07333)
- Sequence (P07333 20-972): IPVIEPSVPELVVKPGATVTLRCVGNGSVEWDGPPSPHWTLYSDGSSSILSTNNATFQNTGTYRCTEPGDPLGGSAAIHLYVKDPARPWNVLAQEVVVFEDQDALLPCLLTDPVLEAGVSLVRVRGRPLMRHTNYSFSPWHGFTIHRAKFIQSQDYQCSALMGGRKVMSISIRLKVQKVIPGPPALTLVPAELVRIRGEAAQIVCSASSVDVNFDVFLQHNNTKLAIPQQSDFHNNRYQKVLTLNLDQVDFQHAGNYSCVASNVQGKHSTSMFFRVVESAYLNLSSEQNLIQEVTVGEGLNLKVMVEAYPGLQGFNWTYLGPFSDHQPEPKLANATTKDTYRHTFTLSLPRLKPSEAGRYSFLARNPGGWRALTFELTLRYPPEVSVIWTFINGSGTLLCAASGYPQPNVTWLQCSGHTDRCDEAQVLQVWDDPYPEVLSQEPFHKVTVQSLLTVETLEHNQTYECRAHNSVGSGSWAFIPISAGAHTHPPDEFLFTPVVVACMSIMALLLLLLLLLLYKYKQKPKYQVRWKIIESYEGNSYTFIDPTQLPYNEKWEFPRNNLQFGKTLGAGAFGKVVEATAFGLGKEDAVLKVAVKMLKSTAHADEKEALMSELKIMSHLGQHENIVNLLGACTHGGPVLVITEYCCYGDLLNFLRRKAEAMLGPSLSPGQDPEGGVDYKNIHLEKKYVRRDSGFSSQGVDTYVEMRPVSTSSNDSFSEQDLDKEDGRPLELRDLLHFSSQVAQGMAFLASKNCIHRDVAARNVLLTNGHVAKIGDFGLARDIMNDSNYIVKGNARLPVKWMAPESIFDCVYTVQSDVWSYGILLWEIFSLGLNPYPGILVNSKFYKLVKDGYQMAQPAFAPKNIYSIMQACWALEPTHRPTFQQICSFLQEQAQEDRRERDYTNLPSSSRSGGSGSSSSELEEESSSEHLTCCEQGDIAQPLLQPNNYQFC
pKd: −log10 of the molar value.
Collected pKd values appear next to each entry.
readout_label: pKd

CC(C)(C)c1cc(NC(=O)Nc2ccc(NC(=O)c3ccc(CN4CCOCC4)cn3)cc2)no1 ... 8.00 to 8.52
CC(C)(C)c1cc(NC(=O)Nc2ccc(NC(=O)c3cccc(OCCN4CCOCC4)n3)cc2)no1 ... < 8.00
CCN1CCC(Oc2ccc(C(=O)N[C@H]3CC[C@H](NC(=O)Nc4cc(C(C)(C)C)on4)CC3)nc2)CC1 ... 8.00 to 8.52
CN1C(C)(C)CC(Oc2ccc(C(=O)Nc3ccc(NC(=O)Nc4cc(C(F)(F)F)n(C)n4)cc3)nc2)CC1(C)C ... > 8.52

----------
- measured_on: CSF1R (human) (Homo sapiens, UniProt P07333)
- Construct: made in house; host or cells: T7 phage display or HEK-293 cells (alternatives, not resolved per kinase)
- assay_method_text: Competition binding assay, CSF1R (human) Kd
pKd: −log10 of the molar value.
readout_label: pKd

CN1C(C)(C)CC(Oc2ccc(C(=O)Nc3ccc(NC(=O)Nc4cc(C(C)(C)C)nn4C)cc3)nc2)CC1(C)C ... 8.00 to 8.52
Cc1cc(NC(=O)c2ccc(OC3CC(C)(C)N(C)C(C)(C)C3)cn2)ccc1NC(=O)Nc1cc(C(C)(C)C)on1 ... > 8.52
CC(C)N1CC[C@H](Oc2ccc(C(=O)Nc3ccc(NC(=O)Nc4cc(C(C)(C)C)on4)cc3)nc2)C1 ... > 8.52
CC(C)N1CCC(Oc2ccc(C(=O)Nc3ccc(N(C)C(=O)Nc4cc(C(C)(C)C)on4)cc3)nc2)C1 (centres unmarked) ... > 8.52
CCN(CC)Cc1ccnc(C(=O)Nc2ccc(NC(=O)Nc3cc(C(C)(C)C)on3)cc2)c1 ... 8.00 to 8.52

----------
- measured_on: kinase panel containing either 359 or 386 distinct kinases
- assay_method_text: Competition binding assay, selectivity score (S10) against a panel of kinases
- test_context: compounds at 10 μM; fraction of kinases with percent of control less than 10
readout_label: Kinase Specificity (S10)

CN1CCC(Oc2ccc(C(=O)Nc3ccc(NC(=O)Nc4cc(C(C)(CF)CF)on4)cc3)nc2)CC1 ... B (0.03 < B ≦ 0.05)
CC(C)(C)c1cc(NC(=O)Nc2ccc(NC(=O)c3ccc(OC[C@H]4CCCN5CCCC[C@@H]45)cn3)cc2)no1 ... C (C > 0.05)
CCN1CCC(Oc2ccc(C(=O)Nc3ccc(NC(=O)Nc4cc(C(C)(C)C)on4)cc3)nc2)CC1 ... C (C > 0.05)
CC(C)(C)OC(=O)N1CCC(Oc2ccc(C(=O)N[C@H]3CC[C@H](NC(=O)Nc4cc(C(C)(C)C)on4)CC3)nc2)CC1 ... A (A ≦ 0.03)
CCN1CCC(Oc2ccc(C(=O)Nc3ccc(NC(=O)Nc4cc(C(C)(C)C)on4)cc3)nc2)C1 (centres unmarked) ... B (0.03 < B ≦ 0.05)
CC(C)(C)c1cc(NC(=O)Nc2ccc(NC(=O)c3ccc(OC4CCN(C5CC5)CC4)cn3)cc2)no1 ... A (A ≦ 0.03)
CCN1CCC(Cc2ccc(C(=O)Nc3ccc(NC(=O)Nc4cc(C(C)(C)C)on4)cc3)nc2)CC1 ... B (0.03 < B ≦ 0.05)
CC(C)(C)c1cc(NC(=O)Nc2ccc(NC(=O)c3cccc(OCCN4CCOCC4)n3)cc2)no1 ... A (A ≦ 0.03)
CCN1CCC(Oc2ccc(C(=O)N[C@H]3CC[C@H](NC(=O)Nc4cc(C(C)(C)C)on4)CC3)nc2)CC1 ... A (A ≦ 0.03)
CC(C)(C)c1cc(NC(=O)Nc2ccc(NC(=O)c3cccc(OC4CCNCC4)n3)cc2)no1 ... B (0.03 < B ≦ 0.05)
CC(C)N1CC[C@@H](Oc2ccc(C(=O)Nc3ccc(NC(=O)Nc4cc(C(C)(C)C)on4)cc3)nc2)C1 ... C (C > 0.05)
CN1CCN(c2cccc(C(=O)Nc3ccc(NC(=O)Nc4cc(C(C)(C)C)on4)cc3)n2)CC1 ... B (0.03 < B ≦ 0.05)
CCN1C(C)(C)CC(Oc2ccc(C(=O)Nc3ccc(NC(=O)Nc4cc(C(C)(C)C)on4)cc3)nc2)CC1(C)C ... A (A ≦ 0.03)
CC(C)(C)c1cc(NC(=O)Nc2ccc(NC(=O)c3ccc(CC4CCNCC4)cn3)cc2)no1 ... A (A ≦ 0.03)
CC(CF)(CF)c1cc(NC(=O)Nc2ccc(NC(=O)c3ccc(OC4CCN(CC(F)(F)F)CC4)cn3)cc2)no1 ... A (A ≦ 0.03)
CN1C(C)(C)CC(Oc2ccc(C(=O)Nc3ccc(NC(=O)Nc4cc(C(C)(CF)CF)on4)cc3)nc2)CC1(C)C ... B (0.03 < B ≦ 0.05)
CN1C(C)(C)CC(=O)C(c2ccc(C(=O)Nc3ccc(NC(=O)Nc4cc(C(C)(C)C)on4)cc3)nc2)C1(C)C (centres unmarked) ... A (A ≦ 0.03)
CCN1CC(Oc2ccc(C(=O)Nc3ccc(NC(=O)Nc4cc(C(C)(C)C)on4)cc3)nc2)C1 ... B (0.03 < B ≦ 0.05)
CN1C(C)(C)CC(Oc2ccc(C(=O)Nc3ccc(NC(=O)Nc4cc(C(F)(F)F)n(C)n4)cc3)nc2)CC1(C)C ... C (C > 0.05)
CN1C(C)(C)CC(Oc2ccc(C(=O)Nc3ccc(NC(=O)Nc4cc(C(C)(C)C)on4)cc3)nn2)CC1(C)C ... C (C > 0.05)
Cc1cc(NC(=O)Nc2cc(C(C)(C)C)on2)ccc1NC(=O)c1ccc(OC2CC(C)(C)N(C)C(C)(C)C2)cn1 ... C (C > 0.05)
CC(C)N1CCC(Oc2ccc(C(=O)Nc3ccc(NC(=O)Nc4cc(C(C)(C)C)on4)cc3)nc2)CC1 ... B (0.03 < B ≦ 0.05)
CN1C(C)(C)CC(Oc2ccc(C(=O)Nc3ccc(NC(=O)Nc4cc(C(C)(C)F)no4)cc3)nc2)CC1(C)C ... A (A ≦ 0.03)
CC(C)(C)c1cc(NC(=O)Nc2ccc(NC(=O)c3cccc(CN)n3)cc2)no1.Cl ... A (A ≦ 0.03)
Cc1cc(NC(=O)c2ccc(OC3CC(C)(C)N(C)C(C)(C)C3)cn2)ccc1NC(=O)Nc1cc(C(C)(C)C)on1 ... B (0.03 < B ≦ 0.05)
CC(C)(C)c1cc(NC(=O)Nc2ccc(NC(=O)c3ccc(OC4CCN(C(C)(C)C)CC4)cn3)cc2)no1 ... B (0.03 < B ≦ 0.05)
